Data origin: ChEMBL document CHEMBL1201862

Tested on: SW-620
protocol description: NCI tumour cell line growth inhibition, 48 h
Calls of active or inactive are those of the source. Rule as the data show it: active = GI50 up to about 1.1 µM and inactive = higher.
Bench note: report the call from Yes = active, No = inactive

COc1cc2c(cc1OC)c1c(OC)c(OC)cc3c1c1c2sc(=S)n1CC3 :: No
O=C1CC(C(COCc2ccccc2)OCc2ccccc2)CC(=O)N1 (configuration not stated) :: No
CCOC(=O)c1nc2ccc(Cl)cc2c2c1Cc1ccccc1-2 :: No
Oc1cc(O)c2ccc(-c3ccc(O)c(O)c3)[o+]c2c1 :: No
c1ccc(-c2csc3c2-n2cccc2C3N2CCCC2)cc1 (configuration not stated) :: No

Answer briefly: the call reported for C=C1CC2CC[C@@]34C[C@H]5O[C@@H]6C(O[C@H]7CC[C@H](CC(=O)OC8[C@H](C)C9OC%10C[C@]%11(C[C@@H]%12O[C@]%13(C[C@H](C)[C@@H]%14O[C@H]([C@H](O)C[C@H](O)CO)C[C@@H]%14O%13)C[C@H](C)[C@@H]%12O%11)OC%10CC9O[C@H]8C[C@H]8O[C@H](CC[C@@H]1O2)C[C@@H](C)C8=C)O[C@H]7[C@@H]6O3)[C@@H]5O4 (some centres not stated) in this assay.
Yes

Answer briefly: the call reported for `COc1ccc(/C=C/c2cc(OC)c(OC)c(OC)c2)cc1` in this assay.
No

###

Tested on: UACC-62
protocol description: NCI tumour cell line growth inhibition, 48 h
Activity calls are given as the source filed them. Cut-off read from the data, not from the text of the source: active = GI50 up to about 1.1 µM and inactive = higher.
recorded endpoint: GI50

S=P1(Oc2ccccc2)NNP2(=NP(N3CC3)(N3CC3)=NP(N3CC3)(N3CC3)=N2)NN1 (stereo unspecified) :: 98.4 µM (inactive)
O=c1c2cc([N+](=O)[O-])ccc2nc2n1CCCCC2 :: > 100 µM (inactive)
Oc1cc(O)c2ccc(-c3ccc(O)c(O)c3)[o+]c2c1 :: > 100 µM (inactive)
Cc1ccc(/C=C/C(=O)C(C)(C)CN2CCCCC2)cc1 :: 11.1 µM (inactive)
S=C1C=C(c2ccccc2)Sc2ccccc2N1 :: > 100 µM (inactive)

Now consider a different compound.
Recorded GI50 of `Cc1cs/c(=N/c2ccccc2)n1CCC(O)(P(=O)(O)O)P(=O)(O)O` , please.
> 100 µM (inactive)

###

Tested on: UO-31
protocol description: NCI tumour cell line growth inhibition, 48 h
Activity calls are given as the source filed them. Cut-off read from the data, not from the text of the source: active = GI50 up to about 1.1 µM and inactive = higher.
Bench note: report the call from Y (active), N (inactive)

Known results for compounds:
Cc1c(Cl)cccc1NC(=O)C(=O)C(C(=O)c1ccccc1-c1ccccc1)C1OC(=O)c2ccccc21 (stereo not given) :: N
C=C1C(=O)O[C@@H]2[C@H]1C[C@H](I)[C@@]1(C)CC[C@H](O1)[C@](C)(I)CCCC(C)[C@@H]2O (stereo not given in full) :: N
COc1ccc(NC(=O)C(=O)Cc2ccc([N+](=O)[O-])c([N+](=O)[O-])c2CC(=O)C(=O)Nc2ccc(OC)cc2OC)c(OC)c1 :: N
C/C(=N\n1c(Cc2ccccc2)n[nH]c1=O)c1ccc([N+](=O)[O-])cc1 :: N
BrC(Br)=C1C(=C(Br)Br)C(Br)C1Br (stereo not given) :: Y
N#Cc1c2c(c(Nc3ccc(F)cc3)n3c1nc1ccccc13)CCCC2 :: N

Answer briefly: the call reported for CC(C)(Cl)C(Br)CCC(C)(Br)C(Br)CBr (stereo not given) in this assay.
N

Answer briefly: the call reported for c1ccc(-c2csc3c2-n2cccc2C3N2CCCC2)cc1 (stereo not given) in this assay.
N

Answer briefly: the call reported for CC(C)=CCC/C(C)=C/C=C/C(C)=C/C=C/C(C)=C/C=C/C=C(C)/C=C/C=C(C)/C=C/[C@H]1C(C(C)(C)O)CC[C@]1(C)O (stereo not given in full) in this assay.
N

Answer briefly: the call reported for CC(=O)C1=C(C)N(c2ccc(C)cc2)C2(O)C3=C(C(=O)c4ccccc4C3=O)C(O)=CC12Cl (stereo not given) in this assay.
N

Answer briefly: the call reported for `Oc1ccc(I)c2cccnc12` in this assay.
N

Answer briefly: the call reported for `CN(C)c1ccc(C=C2C(=O)OC(C)(C)OC2=O)cc1Br` in this assay.
N

###

Tested on: PC-3
protocol description: NCI tumour cell line growth inhibition, 48 h
Active and inactive are the calls of the source. Cut-off read from the data, not from the text of the source: active = GI50 up to about 1.1 µM and inactive = higher.
recorded endpoint: GI50

O=C1Oc2ccccc2C1C/C(=N\Nc1ccccc1)c1ccccc1O (stereo not given) :: 30.2 µM (inactive)
CN1Cc2ccccc2S(=O)(=O)n2cccc2C1=O :: > 100 µM (inactive)
O=C(O[C@H]1CCN2C[C@H]3C[C@H](CN4C(=O)CCC[C@H]34)[C@@H]2C1)c1ccc(O)cc1 :: > 100 µM (inactive)

What GI50 appears in the records for this molecule with PC-3? C=C1C(=O)O[C@@H]2[C@H]1C[C@H](I)[C@@]1(C)CC[C@H](O1)[C@](C)(I)CCCC(C)[C@@H]2O (stereo not given in full)
6.03 µM (inactive)

What GI50 appears in the records for this molecule with PC-3? `CC(C)(C)c1ccc(O)c(CN(Cc2c(O)ccc3ccccc23)C2CCCCC2)c1`
14.5 µM (inactive)

###

Readings of GI50 for the listed compounds
Test system: SK-OV-3
protocol description: NCI tumour cell line growth inhibition, 48 h
Calls of active or inactive are those of the source. Rule as the data show it: active = GI50 up to about 1.1 µM and inactive = higher.

Below: 4 compounds and their reported GI50.
CN1C2CCC1CC(CCNC(c1ccccc1)c1ccccc1)C2 (stereo not given) :: > 100 µM (inactive)
c1nncn1C12C3C4C5C3C1C5C42 (stereo not given) :: > 100 µM (inactive)
Cc1ccc(N2C(=O)N(c3ccc(C)cc3)C3(SC=NN3C)C2=O)cc1 (stereo not given) :: > 100 µM (inactive)
COc1cc2c3cc1Oc1c(O)c(OC)cc4c1C(Cc1ccc(O)c(c1)Oc1ccc(cc1)CC3N(C)CC2)N(C)CC4 (stereo not given) :: 23.3 µM (inactive)

Now consider a different compound.
Recorded GI50 of N#CC1=C(N)OC2=C(CCCc3ccc([N+](=O)[O-])cc32)C1c1ccc(Cl)cc1 (stereo not given) , please.
13.7 µM (inactive)

###

Test system: CCRF-CEM
protocol description: NCI tumour cell line growth inhibition, 48 h
The source made the active and inactive calls. No stated cut-off is given here; in the data, active = GI50 up to about 1.1 µM and inactive = higher.
Bench note: report the call from active, inactive

Cc1cc(S(=O)(=O)/N=C(\NN)Nc2ccc(Cl)cc2)c(S)cc1Cl :: inactive

Now let's try a different one.
Answer briefly: the call reported for `COc1ccc(CNC2=C(NC(C)=O)C(=O)c3ccccc3C2=O)cc1` in this assay.
inactive

###

Tested on: LOX IMVI
protocol description: NCI tumour cell line growth inhibition, 48 h
Calls of active or inactive are those of the source. Cut-off read from the data, not from the text of the source: active = GI50 up to about 1.1 µM and inactive = higher.
Bench note: report the call from 1 (yes) for active, 0 (no) for inactive

Known results for molecules:
CC(=O)N(C)c1ccc2ncccc2c1[N+](=O)[O-] :: 0 (no)
Cc1cc(S(=O)(=O)/N=C(\NN)Nc2ccc(Cl)cc2)c(S)cc1Cl :: 0 (no)
Cc1nc(N)sc1C(=O)Nc1nc[nH]n1 :: 0 (no)
COc1cc2c3cc1Oc1c(O)c(OC)cc4c1C(Cc1ccc(O)c(c1)Oc1ccc(cc1)CC3N(C)CC2)N(C)CC4 (stereo not given) :: 0 (no)
COC(=O)/C(=N\NC(=O)c1ccccc1O)C(C#N)c1ccccc1 (stereo not given) :: 0 (no)

Now let's try a different one.
Answer briefly: the call reported for N#CC1CCCC2SC(F)(F)C(F)(F)C12 (stereo not given) in this assay.
0 (no)

###

Tested on: ACHN
protocol description: NCI tumour cell line growth inhibition, 48 h
Activity calls are given as the source filed them. Cut-off read from the data, not from the text of the source: active = GI50 up to about 1.1 µM and inactive = higher.
Readings of GI50 for the listed compounds

Below: 4 compounds and their reported GI50.
O=C(O[C@H]1CCN2C[C@H]3C[C@H](CN4C(=O)CCC[C@H]34)[C@@H]2C1)c1ccc(O)cc1 :: > 100 µM (inactive)
CN1CCC2(CC1)SC[C@H]1C(=O)N(c3ccc(Cl)cc3)C(=O)N12 :: 25.9 µM (inactive)
C=CC/N=C1/N=C(CC(=O)OCC)CS1 :: > 100 µM (inactive)
CCCNC(=O)N1CC(CN2CCN(c3ccccc3)CC2)O/C1=N/C(=O)Nc1ccccc1 (stereo unspecified) :: > 100 µM (inactive)

Recorded GI50 of `C/C(=C\CNc1nc(Cl)nc2[nH]cnc12)CO` , please.
> 100 µM (inactive)

Recorded GI50 of CCCCCCCCCCCCC(=O)NCC(=O)NC(Cc1ccccc1)C(=O)Oc1ccc([N+](=O)[O-])cc1 (stereo unspecified) , please.
> 100 µM (inactive)

Recorded GI50 of `C=CCn1c(=O)ccn(/C(=C/C(=O)OCC)C(=O)OCC)c1=O` , please.
3.72 µM (inactive)

Recorded GI50 of `Cc1ccc2c(CC(=O)O)cc(=O)oc2c1` , please.
> 100 µM (inactive)

Recorded GI50 of `O=[N+]([O-])c1ccc(/N=N/N2CCCC2)cc1` , please.
> 100 µM (inactive)

Recorded GI50 of `C/C(=N\NC(=S)Nc1ccc(C(=O)O)cc1)c1ccccn1` , please.
16.7 µM (inactive)

Recorded GI50 of `ClC[Si]12OCCN(CCO1)CCO2` , please.
> 100 µM (inactive)
